Values were extracted from the nanobody polyreactivity screen of Harvey et al. (2022).

METHOD NOTES: yeast display, Sf9 membrane polyspecificity reagent, FACS + sequencing; frameworks hold sequencing errors
PROPERTY NAME: polyreactivity (PSR sort gate)

# RESIDUES, PROPERTY NAME, TEST VALUE
measured = [
    ("QVQLVESGGCLVQAGGSLRLSCVASGRTFRRYAMGWYRQAPGKERELLSTITLNGGSTYYADSVKGRFTISRDNATNTVDLQMNSLKPEDTAVYDCKRCTNVVRRGVYSFGYDYWGEGTQVTVSS", "polyreactivity (PSR sort gate)", "low polyreactivity"),
    ("QDQLVESGGGLVQAGGSLRLSCAASGSTFEYYAMGWYRQAPGKERELVAAISSGPSTTYADSVKGRFTISRDNAKNTVYLQMNSLKPEDTAVYYCARRDGTTQALFGYDYWGQGTQVTVSS", "polyreactivity (PSR sort gate)", "low polyreactivity"),
    ("QVQLVESGGGLVQAGGSLRLSCAASGGTFGPYAMGWYRQAPGKERELVATIRSSGGRTYYADSVKGRFTISRDNAKNTVYFQMNSLKPEDTAVYYCAATEFRYFEGGAYFEGYYWGQGTQVTVSS", "polyreactivity (PSR sort gate)", "low polyreactivity"),
    ("QVQLVESGGGLVQAGGSLRLSCAASGSIFEVYAMGWYRQAPGKEREFVATISGSGGSTYYADSVKGRFTISRDNAKNTVYLQMNSLKPEDTAVYYCAASIAWYSSFVITYYYWGQGTQVTVSS", "polyreactivity (PSR sort gate)", "low polyreactivity"),
    ("QVQLVESGGGLVQAGGSLRLSCAASGRIFRGNTMGWYRQAPGKERELVAAITIRGRTYYADSVKGRFTISRDNAKNTVYLQMNSLKPEDTAVYYCAVASAGDNDYWGQGTQVTVSS", "polyreactivity (PSR sort gate)", "low polyreactivity"),
    ("QVQLVESGGGLVQAGGSLRLSCAASGFIFNRYAMGWYRQAPGKERELVADITGGSTYYADSVKGRFTISRDNAKNTVYLQMNSQKPEDTEVYYCAADRYGFYLESDYWGQGTQVTVSS", "polyreactivity (PSR sort gate)", "low polyreactivity"),
    ("QVQLVESGGGLVQAGGSLRISCAASGRIFRAYAMGWYRQAPGKERELVADIRSTGSTNYADSVKGRFTISRDNAKNTVYLQMNSLNPEDTAGYYCAARWRSLRFGSGFEYWGQGTQVTVSS", "polyreactivity (PSR sort gate)", "high polyreactivity"),
    ("QVQLVESGGGLVQAGGSLRLSCAASGLTFPRYAMGGYRQAPGKERELVAAISYRGGRTYYADSVKGRFTISRDNAKNTVYLQMNSLKPEDTAVYYCNADSIYSARGWLYGYWGQGTQVTVSS", "polyreactivity (PSR sort gate)", "low polyreactivity"),
    ("QVQLVESGGGLVQAGGSLRLSCAASGSIFSYYTIGWYRKAPGKERELVAAISFSGTSTYYADSVKGRFTISRDNDKNTVYLQMNSLKPEDTAVYFCAKRALYYPTYPKYDTYNRYYWGQGTQGTVSS", "polyreactivity (PSR sort gate)", "high polyreactivity"),
    ("QVQLVESGGRIVQAGGSLRLSCAASGSTFLYYDMGWYRQAPGKERELVAAITNGGNTYYADSVKGRFTISRDNAKNTVYLQKNSRKPEDTAVYYCAKLYTDAIVWSAYDYWGQGTQVTVSS", "polyreactivity (PSR sort gate)", "low polyreactivity"),
    ("QVQLVESGGGLVQAGGSLRLSCAASGFIFDSYAMGWYRQAPGKESELVAAINWNGGRTYYADSVRGRFTISRDNAKNTVYLQMNSLKPEDTAVYYCNAPGIHLGYYRFGYWGQGTQVTVSS", "polyreactivity (PSR sort gate)", "high polyreactivity"),
    ("QVQHVESGGGLVQAGGSLRLSCAASGSIFVFYAMGWYRQAHGKEREFVASITSSGGSTYYADSVKGRFTISRDNAKNTVYLQMNSLKPEDTAVYYCAARKYRNPYYYRYYYWGQGTQVTVSS", "polyreactivity (PSR sort gate)", "high polyreactivity"),
    ("QVQLVESGGGLVQAGGSLRLSCAASGGTFYGNAMGWYRQAPGKERELVAGITDDSSTYYADSVKGRFTISRDNAKNTVYLQMNSLKPEDTAVYYCAKDLSWYYLPEVYYWGQGTQVTVSS", "polyreactivity (PSR sort gate)", "low polyreactivity"),
    ("QVQLVESGGGLVQAGGSLRLTCAASGLTFRSYTMRWYRQAPGTERELVAAITFRGGSTYYADSLKGRFTISRDNAKNTVYLQMNSLKPEDTAVYYSAAVAIRRSVPVPRFDYWGQGTQVTVSS", "polyreactivity (PSR sort gate)", "high polyreactivity"),
    ("QVQLVESGGGLVQAGGSLRLSCAASGSTINYYAMGWYRQAPGKERELVAAISRRSGSTYYADSVKGRFTISRDNAKNTVYLQMNSLKPEDTAVYYCAAGYGGTFNWGQGTQVTVSS", "polyreactivity (PSR sort gate)", "high polyreactivity"),
    ("PLQLVESGGGLVQAGGSLRLSCAASGIIFGRYTMGWYRQAPGKERELFAAITSSGITYYADSVNGRFTISRDNAKNTVYLQLNSLKPEDTAVYYCNADYSIPGYYWPYDYWGLGTQVTVSS", "polyreactivity (PSR sort gate)", "low polyreactivity"),
    ("QVQLVESGGGLVQAGGSLRLSCAASGTIFATYAMGWYRQAPGKERELVAAITSSDGSTNYADSVKGRFTISRDNAKNTVYLQMNSLKPEDTAVYYCAKDTPQSYFRYDYLGQGTQVTVSS", "polyreactivity (PSR sort gate)", "low polyreactivity"),
    ("QVQLVESGGGLVQAGGSLRLSCAASGFIFVDYAMGWYRQAPGKERELVAAISSSGSTTYADSVKGRFTISRDNAKNIVYLQMNSLKPEDTAVYYCAAGLPRVLKDATFDYWGQGTQVTVSS", "polyreactivity (PSR sort gate)", "low polyreactivity"),
    ("QVQLVESGGGLVQAGGSLRLSCAASGFTFRFYAMGWYRQAPGKERELVAAISRSGGDTYYADSVKGRFTISRDNAKNTVYLQMNSLKPEDTAVYYCNKATYRVAGRDFDYWGHGTQVTVSS", "polyreactivity (PSR sort gate)", "high polyreactivity"),
    ("QVQVVESGGGLVQAGGSLRLSCAASGFIFRYYAMGWYRQAPGKEREFVAAISTSAGSTYYADSVKGRFTISRDNAKNTVYLQMNSLKPEDTAVSYCAAEYWRRASYNYWGQGTQVTVSS", "polyreactivity (PSR sort gate)", "high polyreactivity"),
    ("QVQLVESGGGLVQAGGSLRLSSAASGITLTANAMGCYRQAPGKERELVAAISRGGSTYYADSVKGRFTISRDNAKNTVYLQMNSLKPEDTAVYYCNKAGGYWYAKRDYDYWGQCTQVTVSS", "polyreactivity (PSR sort gate)", "high polyreactivity"),
]
